Test system: MS2 coat protein
procedure.details: apparent KD of MS2 coat protein; higher = weaker reporter binding
reported.conditions: Eterna round: R107; input ligand: none
attribute.measured: apparent KD of MS2 coat protein (µM)

[[record]]
sequence_text = "AGGUGGGUCUGAAGGAGCGCGAUAACAUGAGGAUCACCCAUGUUAAAUGGUACAUGAUACUCGCAGGUAGGUCGCAGUAAAACCA [Same State Arginine B GF 12]"
attribute_measured = "apparent KD of MS2 coat protein"
result_number = 0.0844

[[record]]
sequence_text = "GAAUUUAUAUGAAGGAGCGUCGAAAAUGGGUAAACAUGAGGAUCACCCAUGUAAAGGGAACGACAGGUAGGUCGCAUAUGGAUUC [AstromonsSSArgB#26]"
attribute_measured = "apparent KD of MS2 coat protein"
result_number = 0.175

[[record]]
sequence_text = "UUGGGUAUGCGAAGGAGCGGGAAAUAUAUAUAUAUAAUCCUAACAUGAGGAUCACCCAUGUCCCAGGUAGGUCGCGCAUAUUUGG [12.J]"
attribute_measured = "apparent KD of MS2 coat protein"
result_number = 0.0629

[[record]]
sequence_text = "UGAUACCAGUCGGCCGCCACUAUGCUAGAUACUAGCAAUAAAUGGGAACAUGAGGAUCACCCAUGUAGGACCGGGACUGGUAUCU"
attribute_measured = "apparent KD of MS2 coat protein"
result_number = 0.0336

[[record]]
sequence_text = "ACCGCAUCCGUAUAGGAUGCGGCCCAUGAAGGAGCGUGGGAAACCACAGGUAGGUCGCAUGGAAAACAUGAGGAUCACCCAUGUG [Alien]"
attribute_measured = "apparent KD of MS2 coat protein"
result_number = 0.524

[[record]]
sequence_text = "UGACAUUGCUCAGAUACCAGACAUGAGCAUCAGCCAUGUACCAAGAGUACAUGUUAAAAUGUCCCUUGGCAGCUGAGCAAUGUCU [Mod of Eli's TheoBX5 #AlternateMS2 v2]"
attribute_measured = "apparent KD of MS2 coat protein"
result_number = 0.0676

